I'd be grateful if you could share measured pKi for these entries.
- Tested System: human orexin 1 receptors (Homo sapiens (Human))
- Sequence (O43613 whole entry): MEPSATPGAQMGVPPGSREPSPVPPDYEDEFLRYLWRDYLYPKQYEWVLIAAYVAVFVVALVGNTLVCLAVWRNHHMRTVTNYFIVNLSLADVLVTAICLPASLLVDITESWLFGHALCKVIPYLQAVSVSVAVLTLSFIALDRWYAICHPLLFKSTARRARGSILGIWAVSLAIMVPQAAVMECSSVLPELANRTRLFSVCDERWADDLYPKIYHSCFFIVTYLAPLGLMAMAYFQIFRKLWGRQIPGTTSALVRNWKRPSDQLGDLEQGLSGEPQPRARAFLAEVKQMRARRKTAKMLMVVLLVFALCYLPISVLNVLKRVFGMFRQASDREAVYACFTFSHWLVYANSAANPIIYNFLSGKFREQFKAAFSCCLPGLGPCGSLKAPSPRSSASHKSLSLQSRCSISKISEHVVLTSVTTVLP
- Method: Calcium Accumulation in Cells (FLIPR), antagonism of orexin A
- Format: cell-based
- Test Settings: antagonism of orexin A, Cheng-Prusoff corrected; read-out: FLIPR hOx1R Ki
FYI, pKi means -log10 of a concentration in mol per litre.

Request: Any idea what its pKi is? The compound is COc1cncc(-c2nn(C)c3nc(OCC(=O)N[C@@H](C)c4ccc(C)cc4)cc(C)c23)n1
Response: 6.62

Request: Now give it for Cc1ccc2c(cnn2C)c1CNC(=O)COc1cc(C)c2c(C3CC3)nn(C)c2n1 too.
Response: 6.07

Request: Entry to check: C[C@H](NC(=O)COc1cc(C(F)(F)F)c2c(C3CCCC3)nn(C)c2n1)c1ccccc1
Response: 5.93

Request: Further, for Cc1ccc([C@H](C)NC(=O)COc2cc(C(F)F)c3c(-c4ccccc4)nn(C)c3n2)cc1 ?
Response: 7.54

Request: Please give the result for COc1ccc([C@H](C)NC(=O)COc2cc(C(F)F)c3c(-c4ccccc4)nn(C)c3n2)cc1 too.
Response: 7.72

Request: // same read-out, input: Cn1nc(-c2ccccc2)c2c(C(F)(F)F)cc(OCC(=O)NCc3ccc(Cl)cc3)nc21
Response: 5.70

Request: COc1ccc2c(c1)CCC2NC(=O)COc1cc(C)c2c(C3CC3)nn(C)c2n1 (stereo not shown) ?
Response: 6.72

Request: And the next one, COc1nc(-c2nn(C)c3nc(OCC(=O)N[C@@H](C)c4ccc(C)cc4)cc(C)c23)cs1 ?
Response: 7.68

Request: Now consider Cc1ccc(C(C)NC(=O)COc2cc(C(F)(F)F)c3c(-c4ccccc4)nn(C)c3n2)o1 (stereo not shown) .
Response: 6.03

Request: Next up: Cc1ccc2c(n1)CC[C@@H]2NC(=O)COc1cc(C(F)F)c2c(C3CC3)nn(C)c2n1
Response: 6.55

Request: What would you report for COc1ccc([C@H](C)NC(=O)COc2cc(C(F)F)c3c(C4CC4)nn(C)c3n2)cc1 ?
Response: 7.17

Request: # repeat for COc1ccc([C@H](C)NC(=O)C(C)Oc2cc(C)c3c(C4CC4)nn(C)c3n2)cc1 (stereo partly shown)
Response: 5.97

Request: Can you handle Cc1cc(OCC(=O)NCc2ccccc2Cl)nc2c1c(-c1ccccc1)nn2C next?
Response: 6.37

Request: Next compound: CCOc1ccc2c(c1)CC[C@@H]2NC(=O)COc1cc(C)c2c(C3CC3)nn(C)c2n1
Response: 7.15

Request: Can you handle C[C@H](NC(=O)COc1cc(C2CC2)c2c(-c3ccccc3)nn(C)c2n1)c1ccccc1 next?
Response: 6.36

Request: Please answer likewise for Cc1ccc(CNC(=O)COc2cc(C)c3c(C4CC4)nn(C)c3n2)cc1
Response: 5.41

Request: Record: Cc1ccc(C(C)NC(=O)COc2cc(C(F)(F)F)c3c(-c4ccccc4)nn(C)c3n2)cn1 (stereo not shown)
Response: 7.13

Request: What would you report for Cc1ccc([C@H](C)NC(=O)COc2cc(C)c3c(C4CC4)nn(C)c3n2)cc1 ?
Response: 7.30

Request: Next compound up: Cc1ccc(C(C)(C)NC(=O)COc2cc(C)c3c(C4CC4)nn(C)c3n2)cc1
Response: 6.22

Request: COc1ccc2c(c1)C(NC(=O)COc1cc(C)c3c(C4CC4)nn(C)c3n1)CC2 (stereo not shown) , same question.
Response: 6.06

Request: Okay, and Cc1cccc(-c2nn(C)c3nc(OCC(=O)N[C@@H](C)c4ccccc4)cc(C(F)(F)F)c23)c1 ?
Response: 7.27

Request: Then this compound: COc1ccc2c(c1)CC[C@@H]2NC(=O)COc1cc(C(F)(F)F)c2c(C3CC3)nn(C)c2n1
Response: 6.63

Request: Repeat with COc1ccc(C(C)NC(=O)COc2cc(C(F)(F)F)c3c(C4CC4)nn(C)c3n2)cn1 (stereo not shown)
Response: 6.28

Request: Continue with CC(Oc1cc(C(F)(F)F)c2c(-c3ccccc3)nn(C)c2n1)C(=O)N[C@@H](C)c1ccccc1 (single isomer, unassigned)
Response: 6.65

Request: # repeat for CC(C)c1noc(C(C)NC(=O)COc2cc(C(F)(F)F)c3c(-c4ccccc4)nn(C)c3n2)n1 (stereo not shown)
Response: 5.47

Request: Param item: C[C@H](NC(=O)COc1cc(C(F)(F)F)c2c(C3CCCCC3)nn(C)c2n1)c1ccccc1
Response: 6.33

Request: Moving on to Cc1ccc([C@H](C)NC(=O)COc2cc(C(F)(F)F)c3c(C4CC4)nn(C)c3n2)cc1
Response: 7.28

Request: Next compound up: Cc1ccc([C@H](C)NC(=O)COc2cc(C)c3c(-c4ncccc4F)nn(C)c3n2)cc1
Response: 6.88

Request: Same read-out for Cn1nc(-c2ccccc2)c2c(C(F)(F)F)cc(OCC(=O)N[C@H]3CCc4ccccc43)nc21 ?
Response: 6.68

Request: Repeat for the following compound: COc1ccc([C@H](C)NC(=O)COc2cc(C(F)(F)F)c3c(C4CC4)nn(C)c3n2)cc1
Response: 6.80

Request: What do we get for Cn1nc(-c2ccccc2)c2c(C(F)(F)F)cc(OCC(=O)NC3CCCC3)nc21 ?
Response: 6.19

====

- Tested System: human orexin 2 receptors (Homo sapiens (Human))
- Method: Calcium Accumulation in Cells (FLIPR), antagonism of orexin A
- Test Settings: antagonism of orexin A, Cheng-Prusoff corrected; read-out: FLIPR hOx2R Ki
Would you kindly list Ki for each of these compounds?
Expressed in nM, but write only the number.

Request: Look up Ki for this compound: COc1ccc([C@@H](C)NC(=O)COc2cc(C(F)(F)F)c3c(-c4ccccc4)nn(C)c3n2)cc1
Response: 949

Request: Let us now turn to COc1ccc2c(c1)CC[C@@H]2NC(=O)COc1cc(C(F)F)c2c(C3CC3)nn(C)c2n1
Response: 10

Request: Cc1cc(OCC(=O)N[C@@H](C)CCc2ccccc2)nc2c1c(C1CC1)nn2C
Response: 184

Request: Now try COc1ccc(CNC(=O)COc2cc(C)c3c(C4CC4)nn(C)c3n2)cc1Cl .
Response: 1030

====

- Tested System: UniProt:O43614
- Method: Calcium Accumulation in Cells (FLIPR), antagonism of orexin A
- Test Settings: antagonism of orexin A, Cheng-Prusoff corrected; read-out: FLIPR hOx2R Ki
Measured Quantity: pKi
// pKi is dimensionless: -log10 of concentration (M)

Request: Form field: reported pKi of C[C@H](NC(=O)CNc1cc(C(F)(F)F)c2c(-c3ccccc3)nn(C)c2n1)c1ccccc1 [Example 3.1]
Response: 5.95

Request: Also COc1ccc([C@H](C)NC(=O)COc2cc(C)c3c(-c4cc(C)oc4C)nn(C)c3n2)cc1 [Example 6.31] ?
Response: 7.33

Request: Entry C[C@H](NC(=O)COc1cc(C(F)(F)F)c2c(C3CCCCC3)nn(C)c2n1)c1ccccc1 [Example 1.51] please
Response: 6.44

Request: Next compound up: Cc1cc(OCC(=O)NC(C)c2cn3ccsc3n2)nc2c1c(C1CC1)nn2C (centres unmarked) [Example 7.25]
Response: 6.23

Request: Please answer likewise for COc1ccc2c(c1)C(NC(=O)COc1cc(C)c3c(C4CC4)nn(C)c3n1)CC2 (centres unmarked) [Example 7.9]
Response: 6.13

Request: Moving on to the next compound: COc1ccc([C@H](C)NC(=O)COc2cc(C)c3c(-c4cc(OC)cc(OC)c4)nn(C)c3n2)cc1 [Example 6.36]
Response: 6.49

Request: Cool, now COc1nc(-c2nn(C)c3nc(OCC(=O)N[C@@H](C)c4ccc(C)cc4)cc(C)c23)cs1 [Example 5.5]
Response: 7.55

Request: Same read-out for Cc1nn(C)c(C)c1C(C)NC(=O)COc1cc(C)c2c(C3CC3)nn(C)c2n1 (centres unmarked) [Example 1.72] ?
Response: 5.91

====

- Tested System: human orexin 2 receptors (Homo sapiens (Human), UniProt O43614)
- Sequence (O43614 whole entry): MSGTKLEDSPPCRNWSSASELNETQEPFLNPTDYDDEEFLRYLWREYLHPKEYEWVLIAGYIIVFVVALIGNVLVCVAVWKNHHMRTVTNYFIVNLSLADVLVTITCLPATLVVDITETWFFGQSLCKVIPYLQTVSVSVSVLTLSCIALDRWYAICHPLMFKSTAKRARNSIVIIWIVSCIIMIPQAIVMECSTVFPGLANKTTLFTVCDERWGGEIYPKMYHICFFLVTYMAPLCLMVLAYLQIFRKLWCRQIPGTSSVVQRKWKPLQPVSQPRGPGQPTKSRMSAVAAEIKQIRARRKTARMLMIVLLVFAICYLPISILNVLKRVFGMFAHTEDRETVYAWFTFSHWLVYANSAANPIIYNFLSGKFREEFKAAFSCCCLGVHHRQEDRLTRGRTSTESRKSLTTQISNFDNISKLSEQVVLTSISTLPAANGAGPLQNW
- Method: Calcium Accumulation in Cells (FLIPR), antagonism of orexin A
- Test Settings: antagonism of orexin A, Cheng-Prusoff corrected; read-out: FLIPR hOx2R Ki
Task for the reader: assign each of the following compounds its reported pKi.
// scale note: pKi = -log10(conc_M); give the bare number

Request: Reported pKi for C[C@H](NC(=O)COc1cc(C(F)(F)F)c2c(-c3ccccc3)n[nH]c2n1)c1ccccc1 : what is it?
Response: 7.37

Request: Input Cc1ccc2c(c1)CCC2NC(=O)COc1cc(C)c2c(C3CC3)nn(C)c2n1 (centres unmarked)
Response: 7.54

Request: Let us now turn to COc1ccccc1C(C)NC(=O)COc1cc(C(F)(F)F)c2c(-c3ccccc3)nn(C)c2n1 (centres unmarked)
Response: 6.80

Request: Another compound to look at: C[C@H](NC(=O)COc1cc(C(F)(F)F)c2c(C3CC3)nn(C)c2n1)c1ccccc1
Response: 6.77

Request: How about Cc1cc(OCC(=O)NCCc2c[nH]c3ccccc23)nc2c1c(C1CC1)nn2C ?
Response: 6.32

Request: Repeat with Cc1ccc2c(c1)CC[C@@H]2NC(=O)COc1cc(C)c2c(C3CC3)nn(C)c2n1
Response: 7.85

Request: And what about the compound COc1ccc(CNC(=O)COc2cc(C(F)(F)F)c3c(-c4ccccc4)nn(C)c3n2)cc1 ?
Response: 7.08

Request: Repeat with Cc1ccc(C(C)NC(=O)COc2cc(C(F)F)c3c(-c4ccccc4)nn(C)c3n2)cn1 (centres unmarked)
Response: 7.01

The reported numbers originate from patent US8742106B2.
